- target.desc: MKNK1 (Homo sapiens, UniProt Q9BUB5, T385D)
- Construct: GST (N); purchased Carna Biosciences 02-145; host or cells: insect cells (baculovirus expression system)
- Sequence (Q9BUB5 1-424 isoform Q9BUB5-2 T344D): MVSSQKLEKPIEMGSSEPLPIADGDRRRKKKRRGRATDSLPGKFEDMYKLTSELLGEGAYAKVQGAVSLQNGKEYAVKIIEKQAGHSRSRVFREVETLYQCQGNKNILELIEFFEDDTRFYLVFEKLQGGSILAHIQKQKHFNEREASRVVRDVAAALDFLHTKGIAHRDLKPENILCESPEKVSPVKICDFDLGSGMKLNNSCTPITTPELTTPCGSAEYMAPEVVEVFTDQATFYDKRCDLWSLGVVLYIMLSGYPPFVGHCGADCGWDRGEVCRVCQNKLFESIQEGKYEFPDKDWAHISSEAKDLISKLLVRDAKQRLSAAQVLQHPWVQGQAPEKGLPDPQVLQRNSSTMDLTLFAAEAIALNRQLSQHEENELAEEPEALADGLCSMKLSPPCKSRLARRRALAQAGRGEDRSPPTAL
- test.name: MKNK1 kinase high ATP assay (TR-FRET)
- Assay type: biochemical
- settings: ATP final conc. 2 mM; 15 min pre-incubation; reaction time 30 min at 22°C
- Protocol: MKNK1-inhibitory activity at high ATP of compounds of the present invention after their preincubation with MKNK1 was quantified employing the TR-FRET-based MKNK1 high ATP assay as described in the following paragraphs. As substrate for the kinase reaction the biotinylated peptide biotin-Ahx-[…] (C-terminus in amide form) was used, which can be purchased e.g. from the company Biosyntan (Berlin-Buch, Germany). […]
IC50 strictly less than 0.05 µM = t. Otherwise f.

In [3]: df
Out[3]:
                                   compound  assigned_category
0  N[C@H]1C[C@@H](Oc2ccc3ncc(-c4cc5ccccc5o4)n3n2)C1                  t

Item CC(CN)COc1ccc2ncc(-c3cc4ccccc4o3)n2n1 (stereo not shown) : IC50 beneath 0.05 µM, strictly? t

Is it true that IC50 reported for NCC(Cc1ccncc1)Oc1ccc2ncc(-c3cc4ccccc4o3)n2n1 (stereo not shown) is less than 0.05 µM? t

----------
- target.desc: MKNK1 (Homo sapiens, UniProt Q9BUB5, T385D)
- Construct: GST (N); purchased Carna Biosciences 02-145; host or cells: insect cells (baculovirus expression system)
- test.name: MKNK1 kinase high ATP assay (TR-FRET)
- Assay type: biochemical
- settings: ATP final conc. 2 mM; 15 min pre-incubation; reaction time 30 min at 22°C
I'd appreciate it if you marked entries rule met when IC50 is lower than 20 nM and rule not met when it is not.

                                   compound  assigned_category
0  NCC(Oc1ccc2ncc(-c3cc4ccccc4o3)n2n1)C1CC1 (centres unmarked)       rule not met
1  N[C@H]1C[C@H](Oc2ccc3ncc(-c4cc5c(F)cccc5o4)n3n2)C1           rule met
2  N[C@H]1C[C@H](COc2ccc3ncc(-c4cc5ccccc5o4)n3n2)C1           rule met

Now look at this one.
Below 20 nM on IC50? Entry `NCCCOc1ccc2ncc(-c3cc4ccccc4o3)n2n1` rule not met

----------
Recorded pIC50 by entry
- target.desc: MKNK1 (Homo sapiens, UniProt Q9BUB5, T385D)
- Construct: GST (N); purchased Carna Biosciences 02-145; host or cells: insect cells (baculovirus expression system)
- test.name: MKNK1 kinase high ATP assay (TR-FRET)
- Format: biochemical
- settings: ATP final conc. 2 mM; 15 min pre-incubation; reaction time 30 min at 22°C
Entry type: numeric. Quantity: pIC50, the -log10 of concentration in molar units.

                                   compound  reported_result
0  N[C@H](COc1ccc2ncc(-c3cc4ccccc4o3)n2n1)Cc1ccccc1             7.27
1  NC[C@H](Oc1ccc2ncc(-c3cc4ccccc4o3)n2n1)c1ccccc1             7.31
2  NCC(COc1ccc2ncc(-c3cc4ccccc4o3)n2n1)c1ccccc1 (stereo not shown)             7.52
3  NCC(Cc1ccc(F)cc1)Oc1ccc2ncc(-c3cc4ccccc4o3)n2n1 (stereo not shown)             7.34
4       NCCCCOc1ccc2ncc(-c3cc4ccccc4o3)n2n1             7.77

Observed pIC50 on MKNK1 (Homo sapiens, UniProt Q9BUB5, T385D), entry `NCC1(COc2ccc3ncc(-c4cc5ccccc5o4)n3n2)COC1` , equals 7.20

Considering `COc1cccc2oc(-c3cnc4ccc(OCCN)nn34)cc12` , its pIC50 with MKNK1 (Homo sapiens, UniProt Q9BUB5, T385D) was recorded as 7.74

----------
- target.desc: MKNK1 (Homo sapiens, UniProt Q9BUB5, T385D)
- Construct: GST (N); purchased Carna Biosciences 02-145; host or cells: insect cells (baculovirus expression system)
- test.name: MKNK1 kinase high ATP assay (TR-FRET)
- Format: biochemical
- settings: ATP final conc. 2 mM; 15 min pre-incubation; reaction time 30 min at 22°C
assay.metric: pIC50
Scale: negative log10 of molar concentration, which is what pIC50 denotes.

Example entries begin here.
In [3]: df
Out[3]:
                                   compound                               target_desc  reported_result
0  NC1(COc2ccc3ncc(-c4cc5ccccc5o4)n3n2)CC1 [Example 51]  MKNK1 (Homo sapiens, UniProt Q9BUB5, T385D)             7.13
1  NCC(CN1CCOCC1)Oc1ccc2ncc(-c3cc4ccccc4o3)n2n1 (stereo not shown) [Example 31]  MKNK1 (Homo sapiens, UniProt Q9BUB5, T385D)             7.11
2  N[C@H](COc1ccc2ncc(-c3cc4ccccc4o3)n2n1)c1ccccc1 [Example 17]  MKNK1 (Homo sapiens, UniProt Q9BUB5, T385D)             8.00
3  COc1ccc2oc(-c3cnc4ccc(OCCCN)nn34)cc2c1 [Example 9]  MKNK1 (Homo sapiens, UniProt Q9BUB5, T385D)             7.66
4  N[C@H]1C[C@H](Oc2ccc3ncc(-c4cc5ccccc5o4)n3n2)C1 [Example 2]  MKNK1 (Homo sapiens, UniProt Q9BUB5, T385D)             8.22
5  NC(COc1ccc2ncc(-c3cc4ccccc4o3)n2n1)C1CCOCC1 (stereo not shown) [Example 32]  MKNK1 (Homo sapiens, UniProt Q9BUB5, T385D)             7.10

Please find the next compound below.
Item: C[C@H](N)COc1ccc2ncc(-c3cc4ccccc4o3)n2n1 [Example 7] | pIC50: 7.74

----------
- target.desc: MKNK1 (Homo sapiens, UniProt Q9BUB5, T385D)
- Construct: GST (N); purchased Carna Biosciences 02-145; host or cells: insect cells (baculovirus expression system)
- test.name: MKNK1 kinase high ATP assay (TR-FRET)
- Type: biochemical
- settings: ATP final conc. 2 mM; 15 min pre-incubation; reaction time 30 min at 22°C
Reported log10(IC50) values for the following compounds.
Note the log scale: values are log10 of IC50 expressed in nM.

// solved cases for log10(IC50) follow
>>> print(df.to_string())
                                   compound  assay_metric  reported_result
0  C=CCCC(CN)Oc1ccc2ncc(-c3cc4ccccc4o3)n2n1 (stereo not drawn)   log10(IC50)             1.65
1  NC1(COc2ccc3ncc(-c4cc5ccccc5o4)n3n2)CCC1   log10(IC50)             1.46
2  Cc1ccc2oc(-c3cnc4ccc(O[C@H](C)CN)nn34)cc2c1   log10(IC50)             2.19

Record summary for `N[C@H](COc1ccc2ncc(-c3cc4c(F)cccc4o3)n2n1)c1ccccc1` : reported log10(IC50) = 1.83

// log10(IC50) value for `C[C@@H](N)COc1ccc2ncc(-c3cc4ccccc4o3)n2n1` : 1.63

Reported log10(IC50) ( `N[C@H]1C[C@H](Oc2ccc3ncc(-c4cc5cc(F)ccc5o4)n3n2)C1` ) = 0.78

Record summary for `C[C@@H](N)COc1ccc2ncc(-c3cc4cc(Cl)ccc4o3)n2n1` : reported log10(IC50) = 1.79

Reported log10(IC50) ( `C[C@H](CN)Oc1ccc2ncc(-c3cc4cc(Cl)ccc4o3)n2n1` ) = 2.29

GET /value?item= NCC(Oc1ccc2ncc(-c3cc4ccccc4o3)n2n1)C1CCOC1 (stereo not drawn) &field=log10(IC50) returns 1.72
